Reference source for all entries: PubChem BioAssay (NCI)

The following compounds are shown together with reported TGI values.
- System: CAKI-1 renal
- Procedure Summary: NCI tumour cell line growth inhibition, 48 h

Example results:
Cc1cc2c(=O)cc(-c3ccc(C(F)(F)F)cc3)oc2c(C(=O)O)c1C; > 100 µM
Fc1c[c-]c(-c2ccccn2)c(F)c1.[CH3-].[Pt+2].c1ccc([PH+](c2ccccc2)c2ccccn2)cc1; 2.53 µM
CC(C)[C@](O)(C(=O)OCC1=CC[N+]2([O-])CC[C@@H](O)[C@@H]12)[C@H](C)O (stereo partly specified); > 9520 µM

Looking up COc1ccc(C(=O)Nc2ccc(S(=O)(=O)NCC(=O)O)cc2)cc1 , I found its TGI recorded as > 100 µM

Measured TGI, Clc1ccccc1-c1nc(-c2ccncc2)no1 : > 100 µM

Lookup result for COc1ccc(C2=CC(c3ccc(Oc4ccnc5cc(Cl)ccc45)c(OC)c3)c3c(nc(OC)[nH]c3=O)N2)cc1 (stereo unspecified) ; measured TGI: > 100 µM

Entry C=CCC(N[C@@H](CO)c1ccccc1)c1ccccn1 (stereo partly specified) ; TGI = > 100 µM

// O=C(N[C@@H]1C=CCC[C@@H]1c1ccccc1)OCc1ccccc1 : TGI value = 45.1 µM

The compound listed as CCOC(=O)C12CCSC1C1(C#N)C(C#N)=CC2(N=P(c2ccccc2)(c2ccccc2)c2ccccc2)n2c(=O)n(-c3ccccc3)c(=O)n21 (stereo unspecified) has a reported TGI of > 100 µM

Record O=C1NC2(CCCC2)/C(=N\O)C12CCCC2 . Reported TGI: > 100 µM

Query CN(C)CCn1c(=O)oc2cc(C(=O)CN3CCOCC3)ccc21 yields TGI of > 100 µM

The measured TGI associated with CCN1CCC2(CC1)NC(=O)c1c(c3ccc(Cl)c(Cl)c3n1C)C2C#N (stereo unspecified) reads 8.23 µM

Quick note, TGI for OC1CSCCCSCCSCCCSC1 landed at > 100 µM

Entry O=C(Nc1ccc(Cl)cc1F)c1cc(F)ccc1O — recorded TGI = 4.54 µM

Item: C=CC1(c2ccccc2Cl)N/C(=C/OCC)CO1 (stereo unspecified) | TGI: > 100 µM

The measured TGI associated with COC(=O)/C(=N\N)C(C(=O)C(=O)Nc1cccc([N+](=O)[O-])c1)c1nc2ccc(C(=O)c3ccccc3)cc2[nH]c1=O (stereo unspecified) reads > 100 µM

Memo: c1ccc(CCCC2Sc3cccc4cccc(c34)S2)cc1 , reported TGI: > 100 µM

Recorded result, CC(C)=CCc1c(O)ccc2c1OC1c3ccc(O)c(CC=C(C)C)c3OCC21 (stereo unspecified) , TGI: 25 µM

Short answer for Cc1cc(Nc2cc(CN3CCOCC3)c3nc(C)c(Cc4ccc(Cl)cc4F)n3n2)n[nH]1 : TGI was 4.67 µM

Documented TGI of CC(C)[C@H]1CO[C@@H]2O[C@H](C)CC(=O)N21 : > 100 µM
